Reference source: patent US9695155B2

Tested on: rice
Test: Test C flooded paddy test
Assay type: in vivo, Oryza sativa
Conditions: Flood, 250 g ai/ha; scale 0 to 100 (0 no effect, 100 complete control), 13 to 15 days
Excerpt: At time of treatment, test pots were flooded to 3 cm above the soil surface, treated by application of test compounds directly to the paddy water, and then maintained at that water depth for the duration of the test. Treated plants and controls were maintained in a greenhouse for 13 to 15 days, after which time all species were compared to controls and visually evaluated. […] A dash (-) response means no test result.
Below, each of the compounds is paired with its reported Plant response rating, Rice value.
Answer with a number only.

# annotated cases, reported Plant response rating, Rice shown
| compound | Plant response rating, Rice |
| --- | --- |
| FC(F)(F)c1cnn(-c2c(Br)cccc2Oc2ncc(Cl)cn2)c1 [Compound 191] | 0 |
| Clc1cnc(Oc2ccccc2-n2cnc(Br)c2)nc1 [Compound 34] | 0 |
| FC(F)c1cccc(Oc2ncc(Cl)cn2)c1-n1cc(I)cn1 [Compound 184] | 0 |

Okay, next one:
Query: Plant response rating, Rice; subject: COc1cnc(Oc2ccccc2-n2cc(Br)cn2)nc1 [Compound 234]
0
